# SYSTEM: Neutrophil Lipoxygenase (Cavia porcellus)
# Construct: endogenous in cells; host or cells: guinea pig peritoneal neutrophils
# METHOD SUMMARY: Inhibition of Neutrophil Lipoxygenase from Immunologically Stimulated Guinea Pig Neutrophiles (LTB4 and 5-HETE)
# Type: cell-based
# ASSAY SETUP: 10 μg/ml; 100 μM arachidonic acid and 20 μM A23187; the lower the percentage, the more active
READOUT TYPE: 5-HETE, % of Control

The cases that follow already have their 5-HETE, % of Control on record.
INSERT INTO assay_data (compound_structure_string, result) VALUES
  ('Cl.O=C1C(Cl)=C(N2CCN(Cc3ccccc3)CC2)C(=O)c2ccccc21', '35.6 % of Control'),
  ('CCOC(=O)N1CCN(C2=C(Cl)C(=O)c3ccccc3C2=O)CC1.Cl', '6.9 % of Control'),
  ('O=C1C(Cl)=C(N2CCN(Cc3ccccc3)CC2)C(=O)c2ccccc21', '0 % of Control');

Next up:
Ask: Entry CCOC(=O)N1CCN(C2=C(Cl)C(=O)c3ccccc3C2=O)CC1 : reported 5-HETE, % of Control = ?
Reply: 0 % of Control

* * *

# SYSTEM: Neutrophil Lipoxygenase (Cavia porcellus, UniProt A0A286X958)
# Construct: endogenous in cells; host or cells: guinea pig peritoneal neutrophils
# Sequence (A0A286X958 1-674): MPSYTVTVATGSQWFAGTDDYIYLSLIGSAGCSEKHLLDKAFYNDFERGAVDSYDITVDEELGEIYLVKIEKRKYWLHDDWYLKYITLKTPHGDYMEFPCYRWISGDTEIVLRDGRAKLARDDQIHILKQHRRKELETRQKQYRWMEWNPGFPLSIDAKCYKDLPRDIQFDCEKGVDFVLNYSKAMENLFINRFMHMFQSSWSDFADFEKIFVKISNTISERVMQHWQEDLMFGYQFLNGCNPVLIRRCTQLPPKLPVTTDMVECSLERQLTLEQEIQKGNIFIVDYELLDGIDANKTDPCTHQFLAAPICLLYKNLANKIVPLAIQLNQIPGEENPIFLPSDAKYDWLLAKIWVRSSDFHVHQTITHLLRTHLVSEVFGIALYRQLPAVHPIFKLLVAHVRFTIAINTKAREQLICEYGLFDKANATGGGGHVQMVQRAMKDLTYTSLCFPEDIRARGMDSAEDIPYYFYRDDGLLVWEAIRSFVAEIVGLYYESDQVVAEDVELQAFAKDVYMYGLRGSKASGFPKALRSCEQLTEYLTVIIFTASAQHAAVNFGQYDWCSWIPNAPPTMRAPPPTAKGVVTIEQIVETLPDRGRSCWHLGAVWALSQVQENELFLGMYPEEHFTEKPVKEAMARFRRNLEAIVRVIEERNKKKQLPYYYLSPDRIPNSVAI
# METHOD SUMMARY: Inhibition of Neutrophil Lipoxygenase from Immunologically Stimulated Guinea Pig Neutrophiles (LTB4 and 5-HETE)
# Assay type: cell-based
# ASSAY SETUP: 10 μg/ml; 100 μM arachidonic acid and 20 μM A23187; the lower the percentage, the more active; read-out: 5-HETE, % of Control
Where a name gives a salt, the structure may show the parent alone.
READOUT TYPE: remaining activity at 10 µg/mL (%)

Would you please look over these solved cases?
INSERT INTO measurements (compound, readout_type, quantitative_readout) VALUES
  ('CC1=C(N2CCN(c3cccc(C(F)(F)F)c3)CC2)C(=O)c2ccccc2C1=O', 'remaining activity at 10 µg/mL', 0),
  ('O=C1C(Cl)=C(N2CCN(c3nc4ccccc4o3)CC2)C(=O)c2ccccc21', 'remaining activity at 10 µg/mL', 19.6),
  ('CC(C)COC(=O)N1CCN(C2=C(Cl)C(=O)c3ccccc3C2=O)CC1', 'remaining activity at 10 µg/mL', 31.6);

(P) CC1CN(C2=C(Cl)C(=O)c3ccccc3C2=O)CCN1C(=O)Nc1cccc(Cl)c1 (stereo not drawn)
(Q) CC(=O)NC1=C(N2CCN(c3cccc(C(F)(F)F)c3)CC2)C(=O)c2ccccc2C1=O
(R) O=C1C(Cl)=C(N2CCN(c3ccccn3)CC2)C(=O)c2ccccc21 [Example 8, hydrochloride]
(S) O=C1C(Cl)=C(N2CCN(c3ccc4ccccc4n3)CC2)C(=O)c2ccccc21 [Example 10, hydrochloride]
(T) CC1=C(N2CCN(C(=O)Nc3ccc(Cl)cc3)CC2)C(=O)c2ccccc2C1=O
Ask: # ascending order, key=remaining activity at 10 µg/mL Please list each label once, in the requested order.
Reply: S, Q, R, T, P
